- target_entity: Recombinant IKKβ (Homo sapiens)
- Construct: purchased Millipore, Dundee, UK
- Sequence (O14920 whole entry): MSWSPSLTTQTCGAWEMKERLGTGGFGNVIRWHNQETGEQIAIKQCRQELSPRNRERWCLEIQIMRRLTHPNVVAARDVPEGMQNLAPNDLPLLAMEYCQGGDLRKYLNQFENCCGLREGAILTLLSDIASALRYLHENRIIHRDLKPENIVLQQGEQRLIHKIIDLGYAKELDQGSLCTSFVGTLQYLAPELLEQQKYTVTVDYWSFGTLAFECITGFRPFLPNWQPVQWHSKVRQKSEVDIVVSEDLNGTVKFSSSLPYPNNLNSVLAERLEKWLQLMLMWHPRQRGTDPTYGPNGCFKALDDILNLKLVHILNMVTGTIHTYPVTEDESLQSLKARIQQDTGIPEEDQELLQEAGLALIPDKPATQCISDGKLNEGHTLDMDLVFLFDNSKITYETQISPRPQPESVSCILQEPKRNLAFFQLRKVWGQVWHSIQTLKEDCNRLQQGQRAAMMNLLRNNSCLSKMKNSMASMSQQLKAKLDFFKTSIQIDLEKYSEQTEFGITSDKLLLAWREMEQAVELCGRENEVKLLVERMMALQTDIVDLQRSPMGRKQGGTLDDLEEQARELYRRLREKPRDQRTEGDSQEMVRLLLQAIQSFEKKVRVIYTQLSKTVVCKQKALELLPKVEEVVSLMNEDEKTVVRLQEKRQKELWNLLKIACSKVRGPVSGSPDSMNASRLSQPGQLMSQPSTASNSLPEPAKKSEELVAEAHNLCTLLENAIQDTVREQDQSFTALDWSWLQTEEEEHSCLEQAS
- assay: DELFIA IKKβ kinase assay (apparent Ki, Cheng-Prusoff)
- Format: biochemical
- cond: DELFIA assay (first line of an example)
value_type: Ki (µM)

As a guide, the following entries are already answered.
compound: CN1CCN(C(=O)c2cc3c(-c4ccc5[nH]nc(N)c5c4)ccnc3[nH]2)CC1 [Example 243]
Ki (µM): 1.03
--
compound: Nc1n[nH]c2c(C#CCCCC(=O)O)cc(-c3ccnc4[nH]ccc34)cc12 [Example 214]
Ki (µM): 0.268

[1] Nc1n[nH]c2ccc(-c3ccnc4[nH]c(C(=O)NCCN5CCCCC5)cc34)cc12 [Example 244]
[2] Nc1n[nH]c2ccc(-c3ccnc4[nH]c(CN5CCC(F)(F)CC5)cc34)cc12 [Example 261]
[3] CC(C)(C)C#Cc1cc(-c2ccnc(Nc3c[nH]cn3)c2)cc2c(N)n[nH]c12 [Example 318]
[4] CCC(O)(CC)c1cc2c(-c3ccc4[nH]nc(N)c4c3)ccnc2[nH]1 [Example 226]
Query block: Please list these compounds in decreasing order of Ki. # respond with the labels, arranged in the requested order
Result block: 2, 4, 3, 1

[1] Nc1n[nH]c2c(C#CC3(O)CCCCCC3)cc(-c3ccnc4[nH]ccc34)cc12 [Example 209]
[2] CCCCN(CC)CCNC(=O)c1cc2c(-c3ccc4[nH]nc(N)c4c3)ccnc2[nH]1 [Example 245]
Query block: // which entry has the larger Ki value, 1 or 2 ? Your choice should be expressed through its label.
Result block: 1
(1: 2.33 µM, 2: 0.193 µM)

====

- target_entity: Recombinant IKKβ (Homo sapiens)
- Construct: purchased Millipore, Dundee, UK
- assay: DELFIA IKKβ kinase assay (apparent Ki, Cheng-Prusoff)
- Format: biochemical
- cond: non-italicised figure: DELFIA assay
value_type: Ki (nM)

line_notation: CC(C)(C)C#Cc1cc(-c2ccnc(NC(=O)CO)c2)cc2c(N)n[nH]c12
number: 611

[P] CC(C)C#Cc1cc(-c2ccnc(N)c2)cc2c(N)n[nH]c12
[Q] Nc1nccc(-c2ccc3[nH]nc(N)c3c2)c1C#CCCN1CCCCC1
Query block: // which entry has the larger Ki value, P or Q ? Your choice should be expressed through its label.
Result block: Q
(Q: 880 nM, P: 300 nM)

[P] CCNc1cc(-c2ccc3[nH]nc(N)c3c2)ccn1
[Q] CC(C)(C)C#Cc1cc(-c2ccnc(NC3CCC3)c2)cc2c(N)n[nH]c12
[R] Nc1ccccc1C#Cc1c(-c2ccc3[nH]nc(N)c3c2)ccnc1N
Query block: Put the molecules in ascending order of Ki. # respond with the labels, arranged in the requested order
Result block: P, R, Q
(P: 38 nM, R: 59 nM, Q: 1690 nM)

[A] Nc1n[nH]c2ccc(-c3ccnc(NC(=O)Nc4cccc(OCc5cccc(F)c5)c4)c3)cc12
[B] CC(C)(C)C#Cc1cc(-c2ccnc(NC(=O)C3CC3)c2)cc2c(N)n[nH]c12
Query block: // select label with min value of measured Ki from [ A , B ] Your choice should be expressed through its label.
Result block: B

[A] CC(C)c1ccccc1NC(=O)Nc1cc(-c2ccc3[nH]nc(N)c3c2)ccn1
[B] Nc1nccc(-c2ccc3[nH]nc(N)c3c2)c1C#CC1CCCC1
[C] Nc1nccc(-c2ccc3[nH]nc(N)c3c2)c1C#CCCCO
[D] CC(C)c1cccc(NC(=O)Nc2cc(-c3ccc4[nH]nc(N)c4c3)ccn2)c1
[E] NC(=O)c1cccc(-c2cc(-c3ccnc(N)c3)cc3c(N)n[nH]c23)c1
Query block: Put the molecules in ascending order of Ki. # respond with the labels, arranged in the requested order
Result block: C, B, D, E, A
(C: 96 nM, B: 289 nM, D: 419 nM, E: 840 nM, A: 1900 nM)

[a] Nc1n[nH]c2ccc(-c3ccnc(NCCCCCO)c3)cc12
[b] Nc1cc(-c2cc(C#CCCO)c3[nH]nc(N)c3c2)ccn1
[c] Nc1n[nH]c2ccc(-c3ccnc(NC(=O)Nc4cccnc4)c3)cc12
Query block: Please list these molecules in decreasing order of Ki. # respond with the labels, arranged in the requested order
Result block: b, c, a
(b: 4610 nM, c: 1190 nM, a: 335 nM)

[1] Nc1n[nH]c2ccc(-c3ccnc(NCC4CC4)c3)cc12
[2] Nc1n[nH]c2ccc(-c3ccnc(NC(=O)Nc4cccc(F)c4)c3)cc12
Query block: // select label with min value of measured Ki from [ 1 , 2 ] Your choice should be expressed through its label.
Result block: 2
(2: 126 nM, 1: 796 nM)
